Please provide measured cell viability for the entries that follow.
# Tested on: SEM cells
# experimental details: cell viability relative to DMSO control; higher = less cytotoxic
# recorded conditions: RPMI 5 mM glucose + 10% FBS; 48 h; 0.0211 µM

* CCN1\C=C(C(O)=O)/C(=O)C2=C1C(=C(N3CCNC(C)C3)C(=C2)F)F (stereo not given) | 111%
* Cc1nnc(C(C)C)n1[C@@H]1C[C@H]2CC[C@@H](C1)N2CC[C@H](NC(=O)C1CCC(F)(F)CC1)c1ccccc1 | 93.4%

Could you tell me cell viability for each of these compounds? They are listed below.
1. CCOC(=O)c1c(CSc2ccccc2)n(C)c2cc(Br)c(O)c(CN(C)C)c12
2. COC(=O)CCC1=C(C)C2=CC3=NC(=CC4=C(C)C(=C([NH]4)C=C\5N=C(C=C1[NH]2)\C(=C5C)CCC(O)=O)C=C)\C6=C\C=C(/[C@@H](C(=O)OC)[C@@]36C)C(=O)OC
3. CC(C)(C)NCC(O)c1ccc(O)c(CO)c1 (stereo not given)
4. CC1=CC/2=C(C=C1C)N(C[C@@H](O)[C@@H](O)[C@@H](O)CO)C/3=N/C(=O)NC(=O)C3=N2
5. CO[C@H]1C[C@@H]2CC[C@@H](C)[C@@](O)(O2)C(=O)C(=O)N2CCCC[C@H]2C(=O)O[C@H]([C@@H](C)C[C@@H]2CC[C@@H](O)[C@H](OC)C2)CC(=O)[C@H](C)/C=C(\C)[C@@H](O)[C@@H](OC)C(=O)[C@H](C)C[C@H](C)/C=C/C=C/C=C/1C
6. C[C@@H](Cc1cc2c(c(C(N)=O)c1)N(CCCO)CC2)NCCOc1ccccc1OCC(F)(F)F
7. CCCCCN(C)CCC(O)(P(=O)([O-])O)P(=O)(O)O

Response:
1: 103%; 2: 94.9%; 3: 112%; 4: 98.6%; 5: 94.9%; 6: 112%; 7: 90.4%

Could you tell me cell viability for each of these compounds? They are listed below.
1. CN1CCC(CNc2ccc3ncc(-c4cccc(OC(F)(F)F)c4)n3n2)CC1
2. C[S+](=O)([O-])N1CCN(Cc2cc3nc(-c4cccc5[nH]ncc45)nc(N4CCOCC4)c3s2)CC1
3. CN(C[C@@H]1COCCO1)[S+]([O-])(=O)NC2=CC3=C(C=C2)\C=C/C4=C(C=C(C=N4)C5=C[N](C)N=C5)C3=O

Response:
["97.4%", "105%", "109%"]

Could you tell me cell viability for each of these compounds? They are listed below.
1. NC(=O)c1nnn(Cc2cc(Cl)c(C(=O)c3ccc(Cl)cc3)c(Cl)c2)c1N
2. O=C(Nc1nc2cccc(-c3ccc(CN4CC[S+](=O)([O-])CC4)cc3)n2n1)C1CC1
3. O=C(Nc1ccccc1)Nc1ccc(-c2ccc(C(=O)[C@@H]3CCC[C@H]3C(=O)O)cc2)cc1

Response:
1. 114%
2. 124%
3. 108%

* * *

# Tested on: NOMO1
# experimental details: cell viability relative to DMSO control; higher = less cytotoxic
# recorded conditions: RPMI 5 mM glucose + 10% FBS; 48 h; 5.12 µM
// NB: equality with 90% counts as False; only cell viability strictly below is True

* CCCCN1CCC(CNC(=O)c2c3n(c4ccccc24)CCCO3)CC1 | False
* Clc1ccc(C(c2ccccc2Cl)C(Cl)Cl)cc1 (centres undefined) | False
* O=C(O)c1cccnc1 | True
* CN(C)C(=O)[C@H](O)[C@H](Cc1ccccc1)NC(=O)c1cc2cc(Cl)ccc2[nH]1 | False
* N#CC1(c2cccc(C(=O)Nc3cc(Oc4ccc5nc(NC(=O)C6CC6)sc5n4)ccc3F)c2Cl)CC1 | True
* O=C(O)c1cccc(-c2noc(-c3ccccc3F)n2)c1 | False
* CCOc1ccccc1N/N=C1/C(=O)N(c2nc(-c3ccccc3)cs2)N=C1C | False

Lab note: next molecule to report on.
Request: Please let me know if `COC(=O)CCC1=C(C)C2=CC3=NC(=CC4=C(C)C(=C([NH]4)C=C\5N=C(C=C1[NH]2)\C(=C5C)CCC(O)=O)C=C)\C6=C\C=C(/[C@@H](C(=O)OC)[C@@]36C)C(=O)OC` shows cell viability below 90%.
Response: False
